Below, each of the molecules is paired with its reported MIC50 value.
test system: Mycobacterium tuberculosis; assay: Inhibition of Bio-A underexpressed in Mycobacterium tuberculosis in presence of anhydrotetracycline after 9 days
Quick reminder: number only, in µM, skip the unit.

// worked examples, MIC50 included
INSERT INTO measurements (molecular_string, result_unit, test_value) VALUES
  ('CC(=O)c1ccc(N2CCN(C(=O)c3cccc(Cl)c3)CC2)cc1', 'µM', 0.5),
  ('CN1Cc2cc(N3CCN(C(=O)c4cccc(Cl)c4)CC3)ccc2C1=O', 'µM', 1.2),
  ('O=C1OCc2cc(N3CCN(C(=O)c4cccc(Cl)c4)CC3)ccc21', 'µM', 1.8),
  ('CC(=O)c1ccc(N2CCC(C(=O)c3cccc(Cl)c3)CC2)cc1', 'µM', 6.8);

Query: Please supply the value of reported MIC50 for the item CC(=O)c1ccc(N2CCN(C(=O)c3ccc(Cl)c(Cl)c3)CC2)cc1
Reply: 1.9

Query: Find the measured MIC50 of CC(=O)c1ccc(N2CCN(C(=O)c3cccc(Cl)c3)CC2)s1 and report it.
Reply: 1.1

Query: Dear colleague, please send me the reported MIC50 for O=C1CCc2cc(N3CCN(C(=O)c4ccc5c(c4)OCO5)CC3)ccc21 when you can.
Reply: 0.3

----------
assay: Inhibition of wild type Mycobacterium tuberculosis Bio-A using KAPA as substrate after 45 mins in presence of fluorescently labeled dethiobiotin tracer
Readout Name: IC50 (nM)
Entry rule: numbers only, all in nM.

Query: Given the molecule CC(=O)c1ccc(N2CCN(C(=O)c3ccc4c(c3)OCO4)CC2)cc1 , write its reported IC50.
Reply: 155

----------
tested on: Mycobacterium tuberculosis; assay: Inhibition of Bio-A underexpressed in Mycobacterium tuberculosis in presence of anhydrotetracycline after 9 days
Please respond with Condition met when measured MIC50 is strictly beneath 20 µM, and with Condition not met in all other cases.

These recorded examples may help you get a feel for the data.
INSERT INTO results (molecular_string, assigned_category) VALUES
  ('CC(=O)c1ccc(N2CCN(C(=O)c3ccc4c(c3)OCCO4)CC2)cc1', 'Condition met'),
  ('O=C(c1cccc(Cl)c1)N1CCN(c2ccc(-c3ccccn3)cc2)CC1', 'Condition not met');

Query: Does the reported MIC50 of CC(=O)c1ccc(-c2cn(Cc3cccc(Cl)c3)nn2)s1 stay below 20 µM?
Reply: Condition not met

Query: is_below(MIC50, 20 µM) for O=C1CCc2cc(N3CCN(C(=O)c4cccc(Cl)c4)CC3)ccc21 ?
Reply: Condition met

Query: Given CC(=O)c1ccc(N2CCN(C(=O)c3ccc4c(c3)OCCCO4)CC2)cc1 , is recorded MIC50 strictly lower than 20 µM?
Reply: Condition not met

Query: Please let me know if CC(=O)c1ccc(N2CCN(C(=O)c3cscn3)CC2)cc1 shows MIC50 below 20 µM.
Reply: Condition not met

Query: For this compound, is MIC50 lower than 20 µM? CC(=O)c1ccc(N2CCN(C(=O)c3cnn(C)c3)CC2)cc1
Reply: Condition met

Query: Strictly below 20 µM: is that where MIC50 of CC(=O)c1ccc(-c2cn(Cc3cccc(Cl)c3)nn2)cc1 sits?
Reply: Condition not met

----------
system: Mycobacterium tuberculosis H37Rv; assay: Inhibition of Bio-A in wild type Mycobacterium tuberculosis H37Rv after 9 days
Readout Name: MIC50 (µM)
The reply should be a number in µM, with the unit left off.

// worked examples, MIC50 included
INSERT INTO measurements (molecular_string, system_under_test, result_unit, test_value) VALUES
  ('N#Cc1ccc(N2CCN(C(=O)c3cccc(Cl)c3)CC2)cc1', 'Mycobacterium tuberculosis H37Rv', 'µM', 18.5),
  ('O=C1OCc2cc(N3CCN(C(=O)c4cccc(Cl)c4)CC3)ccc21', 'Mycobacterium tuberculosis H37Rv', 'µM', 35),
  ('CC(=O)c1ccc(-c2cn(Cc3cccc(Cl)c3)nn2)cc1', 'Mycobacterium tuberculosis H37Rv', 'µM', 22),
  ('CN1Cc2cc(N3CCN(C(=O)c4cccc(Cl)c4)CC3)ccc2C1=O', 'Mycobacterium tuberculosis H37Rv', 'µM', 15.2);

Query: Find the measured MIC50 of CC(=O)c1ccc(N2CCN(C(=O)c3ccc(Cl)c(Cl)c3)CC2)cc1 and report it.
Reply: 10.2

Query: Quote MIC50 reported for CC(=O)c1ccc(N2CCN(C(=O)c3cccc(Cl)c3)CC2)s1 please.
Reply: 9.9

Query: Please report the measured MIC50 for C/C(=N\O)c1ccc(N2CCN(C(=O)c3cccc(Cl)c3)CC2)cc1
Reply: 20.4

Query: Tell me measured MIC50 for CCCCCC(=O)N1CCN(c2ccc(C(C)=O)cc2)CC1 please.
Reply: 8.7

Query: Supply reported MIC50 belonging to this compound: COc1cc(Cl)cc(C(=O)N2CCN(c3ccc(C(C)=O)cc3)CC2)c1
Reply: 28.6

Query: For the compound O=C1CCc2cc(N3CCN(C(=O)c4ccc5c(c4)OCO5)CC3)ccc21 , give its measured MIC50 value.
Reply: 1.7

Query: Tell us which MIC50 value is on record for O=C(c1cccc(Cl)c1)N1CCN(c2ccc(-c3ccno3)cc2)CC1
Reply: 6.7

Query: Look up MIC50 of COc1ccc(-c2ccc(N3CCN(C(=O)c4cccc(Cl)c4)CC3)cc2)nc1 and report it.
Reply: 22

Query: For the compound O=C(c1cccc(Cl)c1)N1CCN(c2ccc3c(c2)COC3)CC1 , give its measured MIC50 value.
Reply: 40.8

Query: Supply recorded MIC50 for CC(=O)c1ccc(N2CCC(C(=O)c3cccc(Cl)c3)CC2)cc1 here.
Reply: 4.1

----------
test system: Mycobacterium tuberculosis; assay: Inhibition of Bio-A underexpressed in Mycobacterium tuberculosis in presence of anhydrotetracycline after 9 days
Reported MIC50 values are given for each entry in this list.
Answer format: numeric, µM implied, no suffix.

Reference set (2 entries):
INSERT INTO assay_data (molecular_string, system_under_test, result_unit, test_value) VALUES
  ('CC(=O)c1ccc(N2CCN(C(=O)c3ccc4c(c3)OCO4)CC2)cc1', 'Mycobacterium tuberculosis', 'µM', 0.4),
  ('CC(=O)c1cccc(N2CCN(C(=O)c3cccc(Cl)c3)CC2)c1', 'Mycobacterium tuberculosis', 'µM', 26.6);

Query: Give reported MIC50 value for C/C(=N\O)c1ccc(N2CCN(C(=O)c3cccc(Cl)c3)CC2)cc1
Reply: 15.1

----------
test system: Mycobacterium tuberculosis; assay: Inhibition of Bio-A underexpressed in Mycobacterium tuberculosis in presence of anhydrotetracycline after 9 days
Readout Name: log10 MIC50 (log10 of the value in µM)
Give log10 of MIC50, with MIC50 taken in µM.

Before answering, review these 3 worked examples.
INSERT INTO assay_data (molecular_string, readout_name, test_value) VALUES
  ('CC(=O)c1ccc(N2CCN(C(=O)c3cccnc3)CC2)cc1', 'log10 MIC50', 1.16),
  ('O=C(c1cccc(Cl)c1)N1CCN(c2ccc([N+](=O)[O-])cc2)CC1', 'log10 MIC50', 0.67),
  ('N#Cc1ccc(N2CCN(C(=O)c3cccc(Cl)c3)CC2)cc1', 'log10 MIC50', 1.65);

Query: Give the measured log10 MIC50 for COc1cc(Cl)cc(C(=O)N2CCN(c3ccc(C(C)=O)cc3)CC2)c1
Reply: 1.26

Query: State its log10 MIC50: COc1ccc(-c2ccc(N3CCN(C(=O)c4cccc(Cl)c4)CC3)cc2)nc1
Reply: 1.39

Query: Report log10 MIC50 for O=C(c1cccc(Cl)c1)N1CCN(c2ccc3c(c2)COC3)CC1
Reply: 1.11

Query: Supply measured log10 MIC50 of O=C(c1cccc(Cl)c1)N1CCN(c2ccc(-c3ccno3)cc2)CC1 in your reply.
Reply: -0.40

Query: Give a short answer stating reported log10 MIC50 for CCCCCC(=O)N1CCN(c2ccc(C(C)=O)cc2)CC1 .
Reply: 1.03

----------
Reported MIC50 values for a set of molecules
test system: Mycobacterium tuberculosis H37Rv; test: Inhibition of Bio-A in wild type Mycobacterium tuberculosis H37Rv after 9 days

INSERT INTO measurements (molecular_string, test_value) VALUES
  ('Cn1nnnc1-c1ccc(N2CCN(C(=O)c3cccc(Cl)c3)CC2)cc1', '> 50 µM'),
  ('CCCC(=O)N1CCN(c2ccc(C(C)=O)cc2)CC1', '> 50 µM'),
  ('Cc1noc(-c2ccc(N3CCN(C(=O)c4cccc(Cl)c4)CC3)cc2)n1', '> 50 µM'),
  ('CC(=O)c1ccc(N2CCN(C(=O)c3cncc(Cl)c3)CC2)cc1', '> 50 µM'),
  ('CC(=O)c1ccc(N2CCN(C(=O)CC(C)C)CC2)cc1', '> 50 µM');

Query: Provide measured MIC50 value, entry: CC(=O)c1ccc(N2CCN(C(=O)c3cscn3)CC2)cc1
Reply: > 50 µM

Query: Let me know recorded MIC50 for O=C(c1cccc(Cl)c1)N1CCN(c2ccc(-c3ccccn3)cc2)CC1 , thanks.
Reply: > 50 µM
